- Target under test: T1, Human CD24 (human, UniProt P25063 27-59, limits assumed)
- T1 chain (looked up): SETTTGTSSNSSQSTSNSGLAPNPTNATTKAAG
- Experiment notes: SPR affinity ranking, 1:1 binding, analyte conc. 19.71 nM
Provide the recorded kon for the entries that follow.
Give the value, in units of M⁻¹ s⁻¹, as a plain number.

For this binder ( Antibody No 13, lead clone of 4451H (HC T59Y; LC L33G) (antibody, V domains shown) VH: QVQLVQSGAEVKKPGASVKVSCKASGYDFTGYHMNWVRQAPGQGLEWMGEINPITSDKYFNQKFKSRVTMTRDTSISTAYMELSRLRSDDTAVYYCARRDYGTSLDYWGQGTTVTVSS VL: DIQLTQSPSFLSASVGDRVTITCRASKSISKYGAWYQQKPGKAPKLLIYAGSTLHSGIPSRFRGSGSGTEFTLTISSLQPEDFATYYCQQHNEYPITFGQGTKLEIK ), measured kon is 2.45e+06

Antibody No 7, lead clone of 4451H (HC N35G; LC T97I) (antibody, V domains shown) VH: QVQLVQSGAEVKKPGASVKVSCKASGYDFTGYHMGWVRQAPGQGLEWMGEINPITSDKTFNQKFKSRVTMTRDTSISTAYMELSRLRSDDTAVYYCARRDYGTSLDYWGQGTTVTVSS VL: DIQLTQSPSFLSASVGDRVTITCRASKSISKYLAWYQQKPGKAPKLLIYAGSTLHSGIPSRFRGSGSGTEFTLTISSLQPEDFATYYCQQHNEYPIIFGQGTKLEIK yielded kon of 836000
